Target: Tissue-type plasminogen activator (Homo sapiens)
Sequence (P00750 whole entry): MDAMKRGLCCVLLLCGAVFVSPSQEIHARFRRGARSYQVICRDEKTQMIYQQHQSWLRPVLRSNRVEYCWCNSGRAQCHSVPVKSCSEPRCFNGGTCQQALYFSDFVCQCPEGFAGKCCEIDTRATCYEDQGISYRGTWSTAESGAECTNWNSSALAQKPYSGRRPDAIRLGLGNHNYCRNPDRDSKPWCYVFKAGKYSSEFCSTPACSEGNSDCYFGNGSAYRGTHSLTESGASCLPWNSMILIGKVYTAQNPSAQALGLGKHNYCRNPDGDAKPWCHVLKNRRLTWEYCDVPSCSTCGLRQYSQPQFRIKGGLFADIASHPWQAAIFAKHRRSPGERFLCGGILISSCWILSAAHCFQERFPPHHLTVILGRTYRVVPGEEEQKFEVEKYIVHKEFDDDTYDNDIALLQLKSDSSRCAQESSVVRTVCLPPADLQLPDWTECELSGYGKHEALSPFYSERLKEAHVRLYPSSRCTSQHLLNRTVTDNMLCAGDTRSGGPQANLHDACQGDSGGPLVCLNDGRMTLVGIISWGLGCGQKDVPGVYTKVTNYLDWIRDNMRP
quantity-kind: Ki

## Input Which Ki value belongs to [H]/N=C(\N)c1ccc(NCc2nc3cc(C4(/C(=N\OCC(=O)OCC)c5ccccn5)CC4)ccc3n2C)cc1 ?
## Output > 50 µM

## Input Tell me the measured Ki of Cn1c(CNc2ccc(C(=N)N)cc2)nc2cc(C3(C(=O)N4CCCC4)CC3)ccc21 , please.
## Output > 30 µM

## Input Could you tell me which Ki is on file for [H]/N=C(\N)c1ccc(NCc2nc3cc(Cn4c(C)nc5ccccc54)ccc3n2C)cc1 ?
## Output > 50 µM

###

Target: Prothrombin (Homo sapiens)
quantity-kind: Ki (nM)
Kindly provide the numeric value in nM only, without the unit symbol.

## Input # lookup: Ki of [H]/N=C(\N)c1ccc(NCc2nc3cc(Cn4c(C)nc5ccccc54)ccc3n2C)cc1
## Output 780
